# System: OVCAR-4 ovarian
# assay_text: NCI tumour cell line growth inhibition, 48 h
Consider the following molecules and their measured TGI readings.

- molecule: "Cn1c2c(c3ccccc31)CCN1OCC=C[C@@H](C(=O)O)[C@@H]21"
  TGI: "> 100 µM"
- molecule: "CCN1CCN(c2nc3ccccc3nc2C(=O)c2ccc(OC)cc2)CC1"
  TGI: "> 100 µM"
- molecule: "Cc1c(-c2ccccc2)c(=O)oc2ccc(Cl)cc12"
  TGI: "> 100 µM"
- molecule: "COc1cc2c(F)nccc2cc1C(=O)N[C@@H](c1ccc(F)c(Cl)c1)[C@@H]1C[C@@H](O)CN1"
  TGI: "24.6 µM"
- molecule: "CC1=C(C)CC(C#N)(C#N)C(C#N)(C#N)C1"
  TGI: "> 10 µM"
- molecule: "CN(C)c1ncnc2c1Cc1ccccc1C(=O)N2C"
  TGI: "> 100 µM"
- molecule: "O=C1Nc2cc(Cl)ccc2N=CC1NC(=O)C(c1ccccc1)c1ccccc1Cl (stereo not given)"
  TGI: "> 100 µM"
- molecule: "CN(C)CCCNC(=O)c1cc(NC(=O)c2cc(NS(=O)(=O)c3ccc4c(c3)C(=O)c3ccccc3C4=O)cn2C)cn1C"
  TGI: "> 100 µM"
- molecule: "COc1cccc(C(=O)Nc2c3ccccc3nc3ccccc23)c1OC"
  TGI: "> 100 µM"
- molecule: "O=C1c2sc(-c3ccc(F)cc3)cc2-n2cccc21"
  TGI: "> 100 µM"

The reported numbers originate from PubChem BioAssay (NCI).
